Each recorded value in this set is attributed to the Deep4Chem optical property database.

For each entry below, report its photoluminescence quantum yield value.
Assay: photoluminescence quantum yield (fraction); solvent given as SMILES
Conditions: in O

CCn1c(-c2ccc(-c3ccc(-c4ccc(-c5n(CC)c6ccccc6[n+]5CC)cc4)c(C)c3)cc2)[n+](CC)c2ccccc21 | 0.71
CN(C)CCCN1c2ccccc2CCc2ccccc21 | 0.021
Oc1c(-c2ccco2)cccc1-c1nc2ccccc2s1 | 0.01
CN1C(=O)/C(=C/c2ccncc2)N=C1c1ccccc1 | 0.0069
CC(=O)c1ccn2c3c(c(/C=C/c4cc[n+](C)cc4)c2c1)CN(C)C3=O | 0.041
N#Cc1cccc(N)c1 | 0.0019
N#Cc1ccc(N)cc1 | 0.0046
CC[N+](CC)=c1ccc2cc3c(=O)oc4cc5c(cc4c3oc-2c1)CCCN5C | 0.009
Nc1ccc2cn[nH]c2c1 | 0.39
CN(C)c1c2ccccc2cc2ccccc12 | 0.011

Report photoluminescence quantum yield for each item below.
1. Fc1cc(F)c2cc3cccc[n+]3cc2c1
2. COCCOCCOCCNc1cc2c3c(c(NCCOCCOCCOC)cc4c3c1C(=O)N(CCOCCOCCOC)C4=O)C(=O)N(CCOCCOCCOC)C2=O

0.3
0.039

---

For each entry below, report its photoluminescence quantum yield value.
Assay: photoluminescence quantum yield (fraction); solvent given as SMILES
Conditions: in CC#N
Answers are plain numbers.

CCCCCCc1ccc2c3c(ccc2c1)O[B-](F)(F)[N+](c1ccc([N+]2=Cc4c(ccc5cc(CCCCCC)ccc45)O[B-]2(F)F)cc1)=C3 | 0.3
Fc1ccc(/C=C/c2nc3c4ccccc4c4ccccc4c3o2)cc1 | 0.24
O=S1(=O)c2ccc(-c3c4ccccc4cc4ccccc34)cc2-c2cc(-c3c4ccccc4cc4ccccc34)ccc21 | 0.13
COc1ccc(-c2csc(/C(C#N)=C/c3ccncc3)n2)cc1 | 0.04
CN(C)c1ccc(C#Cc2ccc(-c3nc(C#N)c(C#N)n3C)cc2)cc1 | 0.005
COc1c2ccccc2c(OC)c2c1c1cc(F)ccc1n2C | 0.34
CCOC(=O)CC[N+]1=c2cc3c(cc2CCC1)=Cc1c(c2cc4c5c(c2oc1=O)CCCN5CCC4)O3 | 0.024
N#C/C(=C\c1ccc(C#N)cc1)c1nc(-c2ccc(Cl)cc2)c(-c2ccccc2)s1 | 0.114

Report photoluminescence quantum yield for each item below.
1. N#Cc1ccc(-c2ccc3c(c2)c2cc(-c4ccc(C#N)cc4)ccc2c2c3nc(-c3ccc(-c4ccc(N(c5ccccc5)c5ccccc5)cc4)cc3)n2-c2ccccc2)cc1
2. CCOC(=O)c1ccccc1-c1c2ccc(=O)cc-2oc2cc(OC(=O)[C@H](CSCc3ccc(C)cc3)NC(=O)OC(C)(C)C)ccc12
3. COc1cccc(-[c+]2c3ccccc3oc3ccccc32)c1
4. F[B-]1(F)OC(c2ccc(C(F)(F)F)cc2)=Cc2cc(Cl)nc[n+]21

[0.51, 0.004, 0.00066, 0.01]

Report photoluminescence quantum yield for each item below.
1. O=C1/C(=C\c2ccc3oc4ccccc4c3c2)S(=O)(=O)c2ccccc21
2. CCOC(=O)c1ccc(O)c(-c2[nH]c(=O)n3c2-c2ccccc2C3=O)c1
3. O=C(O)c1ccc(-c2nc(-c3ccccc3)c3ccccn23)cc1
4. CCC1=C(C)C2=C(c3c4ccccc4cc4ccccc34)c3c(C)c(CC)c(C)n3[B-](F)(F)[N+]2=C1C
5. C=Cc1cc2ccc(OC)cc2oc1=O
6. CCCn1c(=O)c(/C=C/c2nc3ccc(C)cc3n(CCC)c2=O)nc2ccc(C)cc21
7. CCOC(=O)CN(CC(=O)OCC)c1ccc(-c2cc(-c3ccccn3)nc(-c3ccccn3)c2)cc1

1. 0.041
2. 0.49
3. 0.13
4. 0.579
5. 0.99
6. 0.15
7. 0.37

Report photoluminescence quantum yield for each item below.
1. CCC12C(=C3C(=C4c5ccc(-c6ccc(C)s6)cc5S(=O)(=O)C41CC)C(F)(F)C(F)(F)C3(F)F)c1ccc(-c3ccc(C)s3)cc1S2(=O)=O (configuration not stated)
2. O=[N+]([O-])c1ccc(/C=C/c2nc3c4ccccc4c4ccccc4c3o2)cc1
3. CC(C)CCCN1c2ccccc2CCc2ccccc21

1. 0.67
2. 0.2
3. 0.029
